Biological target: DPP-IV (Homo sapiens, UniProt P27487)
Sequence (P27487 whole entry): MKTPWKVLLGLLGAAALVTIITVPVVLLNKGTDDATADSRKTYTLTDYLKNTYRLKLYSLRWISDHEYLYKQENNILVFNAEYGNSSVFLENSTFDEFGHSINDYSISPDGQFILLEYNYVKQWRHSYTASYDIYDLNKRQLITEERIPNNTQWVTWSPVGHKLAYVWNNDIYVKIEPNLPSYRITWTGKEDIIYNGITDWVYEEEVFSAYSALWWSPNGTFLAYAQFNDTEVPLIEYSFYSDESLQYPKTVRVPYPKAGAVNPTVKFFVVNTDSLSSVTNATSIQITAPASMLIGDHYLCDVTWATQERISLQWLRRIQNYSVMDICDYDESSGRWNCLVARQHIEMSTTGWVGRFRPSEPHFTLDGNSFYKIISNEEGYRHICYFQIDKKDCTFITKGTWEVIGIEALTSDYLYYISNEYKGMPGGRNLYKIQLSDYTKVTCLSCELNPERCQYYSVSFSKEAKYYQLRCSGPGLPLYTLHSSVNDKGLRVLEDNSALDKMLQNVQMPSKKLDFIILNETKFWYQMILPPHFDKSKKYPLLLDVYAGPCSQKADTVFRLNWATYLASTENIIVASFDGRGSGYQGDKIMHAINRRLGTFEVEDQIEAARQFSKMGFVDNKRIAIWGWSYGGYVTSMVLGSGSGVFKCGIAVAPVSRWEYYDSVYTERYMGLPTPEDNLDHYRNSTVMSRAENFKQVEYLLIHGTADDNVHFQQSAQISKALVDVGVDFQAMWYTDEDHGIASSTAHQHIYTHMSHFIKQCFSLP
Experiment: DPP-IV inhibitory activity of peptides (DPP-IV-Glo Protease Assay Kit)
Type: biochemical
Design: purchased QiZheng Biotech (Shanghai, China) IBDPP0901
Settings: Table S3; read-out: IC50
pIC50: −log10 of the molar value. Where a SMILES comes first, the peptide text is derived from it.
ATTRIBUTE MEASURED: pIC50

COMPOUND: CC(C)C[C@H](NC(=O)[C@H](CC(N)=O)NC(=O)[C@@H](N)Cc1ccc(O)cc1)C(=O)N1CCC[C@H]1C(=O)O [YNLP] (H-YNLP-OH)
ATTRIBUTE MEASURED: pIC50
READOUT VALUE: 3.29
--
COMPOUND: CC(C)C[C@H](NC(=O)[C@@H](N)CC(C)C)C(=O)N[C@@H](Cc1ccc(O)cc1)C(=O)O [LLY] (H-Leu-Leu-Tyr-OH)
ATTRIBUTE MEASURED: pIC50
READOUT VALUE: 3.08
--
COMPOUND: CSCC[C@H](NC(=O)[C@H](C)NC(=O)[C@@H](N)C(C)C)C(=O)N1CCC[C@H]1C(=O)O [VAMP] (H-VAMP-OH)
ATTRIBUTE MEASURED: pIC50
READOUT VALUE: 6.00
--
COMPOUND: CC(C)C[C@H](NC(=O)[C@@H](N)Cc1ccccc1)C(=O)N[C@@H](CCC(N)=O)C(=O)O [FLQ] (H-Phe-Leu-Gln-OH)
ATTRIBUTE MEASURED: pIC50
READOUT VALUE: 2.38
--
COMPOUND: CC(C)C[C@H](NC(=O)[C@H](CC(N)=O)NC(=O)[C@@H](N)Cc1ccc(O)cc1)C(=O)O [YNL] (H-Tyr-Asn-Leu-OH)
ATTRIBUTE MEASURED: pIC50
READOUT VALUE: 3.85
--
COMPOUND: CC(C)C[C@H](N)C(=O)N[C@@H](CC(N)=O)C(=O)N[C@@H](C)C(=O)N1CCC[C@H]1C(=O)O [LNAP] (H-LNAP-OH)
ATTRIBUTE MEASURED: pIC50
READOUT VALUE: 3.23
--
COMPOUND: CC(C)C[C@H](NC(=O)[C@H](CCC(N)=O)NC(=O)[C@@H](N)Cc1ccc(O)cc1)C(=O)O [YQL] (H-Tyr-Gln-Leu-OH)
ATTRIBUTE MEASURED: pIC50
READOUT VALUE: 3.55
--
COMPOUND: CSCC[C@H](NC(=O)[C@H](CC(C)C)NC(=O)[C@H](CCC(N)=O)NC(=O)[C@@H](N)Cc1ccc(O)cc1)C(=O)O [YQLM] (H-YQLM-OH)
ATTRIBUTE MEASURED: pIC50
READOUT VALUE: 3.19
--
COMPOUND: CC(C)C[C@H](NC(=O)[C@H](CCC(N)=O)NC(=O)[C@@H](N)Cc1ccccc1)C(=O)O [FQL] (H-Phe-Gln-Leu-OH)
ATTRIBUTE MEASURED: pIC50
READOUT VALUE: 3.01
--
COMPOUND: C[C@H](NC(=O)[C@H](Cc1ccc(O)cc1)NC(=O)[C@H](CO)NC(=O)[C@@H](N)Cc1ccc(O)cc1)C(=O)O [YSYA] (H-YSYA-OH)
ATTRIBUTE MEASURED: pIC50
READOUT VALUE: 3.39
--
COMPOUND: NC(=O)CC[C@H](NC(=O)[C@@H]1CCCN1C(=O)[C@@H](N)Cc1ccccc1)C(=O)N[C@@H](CO)C(=O)O [FPQS] (H-FPQS-OH)
ATTRIBUTE MEASURED: pIC50
READOUT VALUE: 3.46
--
COMPOUND: CC(C)[C@H](N)C(=O)N[C@@H](C)C(=O)N[C@@H](CC(=O)O)C(=O)N[C@@H](Cc1c[nH]c2ccccc12)C(=O)O [VADW] (H-VADW-OH)
ATTRIBUTE MEASURED: pIC50
READOUT VALUE: 3.46
--
COMPOUND: N[C@@H](Cc1c[nH]c2ccccc12)C(=O)N[C@@H](CC(=O)O)C(=O)N[C@@H](CO)C(=O)N[C@@H](Cc1ccc(O)cc1)C(=O)O [WDSY] (H-WDSY-OH)
ATTRIBUTE MEASURED: pIC50
READOUT VALUE: 3.20
--
COMPOUND: C[C@@H](O)[C@H](NC(=O)[C@@H](N)Cc1ccc(O)cc1)C(=O)NCC(=O)N[C@@H](CC(=O)O)C(=O)O [YTGD] (H-YTGD-OH)
ATTRIBUTE MEASURED: pIC50
READOUT VALUE: 3.49
--
COMPOUND: CC(C)C[C@H](NC(=O)[C@@H](N)Cc1c[nH]c2ccccc12)C(=O)N[C@@H](CCC(=O)O)C(=O)O [WLE] (H-Trp-Leu-Glu-OH)
ATTRIBUTE MEASURED: pIC50
READOUT VALUE: 2.62
